FYI, the data here is from ChEMBL document CHEMBL1124117.

- protocol notes: Half-life of compound in the presence of lysosomal enzymes in the acetate buffer
- Assay type: ADME
reported property: half-life (h)
Form entry: value (h) — number only.

input: Fill in the blank: the reported half-life of CC1(C)S[C@@H]2[C@H](NC(=O)COc3ccccc3)C(=O)N2[C@H]1C(=O)O [PENICILLIN V] is ____.
output: 14

input: Fill in the blank: the reported half-life of CC(=O)OCC1=C(C(=O)O)N2C(=O)[C@@H](NC(=O)Cc3cccs3)[C@H]2SC1 [CEPHALOTHIN] is ____.
output: 1.1

input: Fill in the blank: the reported half-life of CC(=O)OCC1=C(C(=O)NC(CC(C)C)C(=O)O)N2C(=O)[C@@H](NC(=O)Cc3cccs3)[C@H]2SC1 (some centres undefined) is ____.
output: 0.8

input: Fill in the blank: the reported half-life of `CC1(C)S[C@@H]2[C@H](NC(=O)COc3ccccc3)C(=O)N2[C@H]1C(=O)N[C@@H](Cc1ccc(O)cc1)C(=O)O` is ____.
output: 7
